Molecular target: T1, EsCas13d, nuclease-dead (Eubacterium siraeum, UniProt B0MS50, R295A;H300A;R849A;H854A)
T1 sequence: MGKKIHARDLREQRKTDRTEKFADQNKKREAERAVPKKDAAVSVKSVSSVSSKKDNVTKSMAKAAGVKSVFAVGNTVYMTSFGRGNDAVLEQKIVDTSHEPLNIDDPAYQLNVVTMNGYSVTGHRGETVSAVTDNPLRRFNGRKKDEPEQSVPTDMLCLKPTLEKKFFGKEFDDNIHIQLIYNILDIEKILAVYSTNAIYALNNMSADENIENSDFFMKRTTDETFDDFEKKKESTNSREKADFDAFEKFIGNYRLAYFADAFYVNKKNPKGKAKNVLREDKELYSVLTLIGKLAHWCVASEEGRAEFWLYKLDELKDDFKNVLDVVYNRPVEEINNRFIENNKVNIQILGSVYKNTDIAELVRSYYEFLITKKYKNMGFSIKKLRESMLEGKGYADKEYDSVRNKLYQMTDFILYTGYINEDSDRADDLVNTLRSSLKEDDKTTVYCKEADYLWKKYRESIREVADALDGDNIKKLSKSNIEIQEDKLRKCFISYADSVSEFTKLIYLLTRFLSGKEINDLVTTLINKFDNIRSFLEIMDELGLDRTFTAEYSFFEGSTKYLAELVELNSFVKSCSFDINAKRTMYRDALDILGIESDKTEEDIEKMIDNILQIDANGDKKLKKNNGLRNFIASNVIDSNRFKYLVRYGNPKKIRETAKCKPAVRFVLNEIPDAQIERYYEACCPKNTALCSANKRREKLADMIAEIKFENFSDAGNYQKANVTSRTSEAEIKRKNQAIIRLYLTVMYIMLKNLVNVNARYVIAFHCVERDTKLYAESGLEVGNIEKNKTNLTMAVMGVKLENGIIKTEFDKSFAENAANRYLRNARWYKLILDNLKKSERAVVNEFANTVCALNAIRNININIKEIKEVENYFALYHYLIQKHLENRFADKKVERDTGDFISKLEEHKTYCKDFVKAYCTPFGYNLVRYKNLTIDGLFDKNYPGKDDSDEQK
Experiment: crRNA (strand 1, pre-loaded); Mg2+; 40 mM Tris-HCl pH 7.5, 150 mM NaCl, 6 mM MgCl2, 1 mM DTT, 0.1% Tween-20, 0.2 mg/ml BSA; 25 C; 10 min per concentration, then washed
Settings: tags: His6-TwinStrep-SUMO cleaved; N-terminal SNAP kept (SNAP-Surface 488); label: 3' end held by stalled T7 RNA polymerase
I'd be grateful if you could share measured pKd for these entries.
// pKd: -log10(molar conc.)

Qu. Recorded pKd for target 3 C6A,A18G (mixed) RNA 1: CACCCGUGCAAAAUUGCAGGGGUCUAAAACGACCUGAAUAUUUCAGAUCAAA RNA 2: GGGAAUGGAUCCACAUCUACGAAUUCGUUUUUGGUCUGAAAUAUUAAGGUCUGCAGAUCGGAAGAGCACACGU , please?
Ans. 7.26

Qu. Would you mind telling me what pKd value was observed for target 2 MT 5'PFS UAA 3'PFS AGA (mixed) RNA 1: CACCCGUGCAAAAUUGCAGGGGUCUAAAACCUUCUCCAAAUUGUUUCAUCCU RNA 2: GGGAAUGGAUCCACAUCUACGAAUUCUAAAGGAUGAAACAAUUUGGAGAAGAGAAGAUCGGAAGAGCACACGU ?
Ans. 8.47

Qu. // lookup pKd for target 1 U19G,A20U (mixed) RNA 1: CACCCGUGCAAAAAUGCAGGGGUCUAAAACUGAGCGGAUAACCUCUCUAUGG RNA 2: GGGAAUGGAUCCACAUCUACGAAUUCGUACCUGAGAGAGGUUAUCCGCUCACCGAGAUCGGAAGAGCACACGU
Ans. 7.02

Qu. Quick one: pKd for target 1 C21U,C22A (mixed) RNA 1: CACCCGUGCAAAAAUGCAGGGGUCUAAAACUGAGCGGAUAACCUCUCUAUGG RNA 2: GGGAAUGGAUCCACAUCUACGAAUUCGUAAUAUAGAGAGGUUAUCCGCUCACCGAGAUCGGAAGAGCACACGU ?
Ans. 7.54

Qu. Name the reported pKd value associated with the binder target 3 U2C,A5U (mixed) RNA 1: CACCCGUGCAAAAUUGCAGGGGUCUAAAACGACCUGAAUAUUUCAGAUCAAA RNA 2: GGGAAUGGAUCCACAUCUACGAAUUCGUUUUUGAUCUGAAAUAUUCUGGCCUGCAGAUCGGAAGAGCACACGU
Ans. 7.44

Qu. For target 1 MT 5'PFS UUA 3'PFS AGU (mixed) RNA 1: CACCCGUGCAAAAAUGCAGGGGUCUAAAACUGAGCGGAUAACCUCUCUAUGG RNA 2: GGGAAUGGAUCCACAUCUACGAAUUCUUACCAUAGAGAGGUUAUCCGCUCAAGUAGAUCGGAAGAGCACACGU , what is its reported pKd?
Ans. 7.13

Qu. Form field: reported pKd of target 1 MT 5'PFS CCG 3'PFS CUG (mixed) RNA 1: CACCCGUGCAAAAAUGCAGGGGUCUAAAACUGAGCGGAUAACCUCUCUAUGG RNA 2: GGGAAUGGAUCCACAUCUACGAAUUCCCGCCAUAGAGAGGUUAUCCGCUCACUGAGAUCGGAAGAGCACACGU
Ans. 8.71

Qu. What value of measured pKd is listed for target 3 A5U,C6A (mixed) RNA 1: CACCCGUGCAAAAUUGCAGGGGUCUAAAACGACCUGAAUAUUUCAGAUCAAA RNA 2: GGGAAUGGAUCCACAUCUACGAAUUCGUUUUUGAUCUGAAAUAUUAUGGUCUGCAGAUCGGAAGAGCACACGU ?
Ans. 7.52
